testedSystem: human TAS2R1 (Homo sapiens)
Construct: expressed in transfected cells; host or cells: HEK293T-Gα16gust44
measurementNotes: Calcium imaging assay (FLIPR), HEK293T-Gα16gust44 cells transfected with human TAS2R1
Assay type: cell-based
experimentalContext: Time 94.781 s
Listed here: items and their measured RLU.

>  <molecule>
C[C@H](CCC(=O)NCCS(=O)(=O)O)[C@H]1CC[C@H]2[C@@H]3CC[C@@H]4C[C@H](O)CC[C@]4(C)[C@H]3CC[C@]12C [Taurolithocholic Acid, taurolithocholic acid]

>  <RLU / RLU>
708.426

$$$$
>  <molecule>
C[C@H](CCC(=O)NCC(=O)O)[C@H]1CC[C@H]2[C@@H]3[C@H](O)C[C@@H]4C[C@H](O)CC[C@]4(C)[C@H]3C[C@H](O)[C@]12C [Glycocholic Acid, glycocholic acid]

>  <RLU / RLU>
568.088

$$$$
>  <molecule>
C[C@H](CCC(=O)NCCS(=O)(=O)O)[C@H]1CC[C@H]2[C@@H]3[C@H](O)C[C@@H]4C[C@H](O)CC[C@]4(C)[C@H]3C[C@H](O)[C@]12C [Taurocholic Acid, taurocholic acid]

>  <RLU / RLU>
416.808

$$$$
>  <molecule>
C[C@H](CCC(=O)O)[C@H]1CC[C@H]2[C@@H]3CC[C@@H]4C[C@H](O)CC[C@]4(C)[C@H]3C[C@H](O)[C@]12C [Deoxycholic Acid, deoxycholic acid]

>  <RLU / RLU>
398.73

$$$$

---

Listed here: items and their measured RLU.
testedSystem: human TAS2R1 (Homo sapiens, UniProt Q9NYW7)
Construct: expressed in transfected cells; host or cells: HEK293T-Gα16gust44
Sequence (Q9NYW7 whole entry): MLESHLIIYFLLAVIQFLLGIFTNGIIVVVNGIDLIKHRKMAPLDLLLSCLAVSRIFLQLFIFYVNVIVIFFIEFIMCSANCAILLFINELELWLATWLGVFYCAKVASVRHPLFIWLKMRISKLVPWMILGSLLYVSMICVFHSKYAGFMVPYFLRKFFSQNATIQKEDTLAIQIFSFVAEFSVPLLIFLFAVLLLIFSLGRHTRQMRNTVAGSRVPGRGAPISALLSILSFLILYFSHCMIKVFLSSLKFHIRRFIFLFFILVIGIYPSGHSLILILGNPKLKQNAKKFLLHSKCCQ
measurementNotes: Calcium imaging assay (FLIPR), HEK293T-Gα16gust44 cells transfected with human TAS2R1
Assay type: cell-based
experimentalContext: Time 50.796 s

>  <compound>
C[C@H](CCC(=O)O)[C@H]1CC[C@H]2[C@@H]3[C@H](O)C[C@@H]4C[C@H](O)CC[C@]4(C)[C@H]3C[C@H](O)[C@]12C [Cholic Acid, cholic acid]

>  <unitSpec>
RLU

>  <RLU>
725.497

$$$$
>  <compound>
C[C@H](CCC(=O)O)[C@H]1CC[C@H]2[C@@H]3[C@H](O)C[C@@H]4C[C@H](O)CC[C@]4(C)[C@H]3CC[C@]12C [Chenodeoxycholic Acid, chenodeoxycholic acid]

>  <unitSpec>
RLU

>  <RLU>
927.172

$$$$
>  <compound>
C[C@H](CCC(=O)O)[C@H]1CC[C@H]2[C@@H]3CC[C@@H]4C[C@H](O)CC[C@]4(C)[C@H]3CC[C@]12C [Lithocholic Acid, lithocholic acid]

>  <unitSpec>
RLU

>  <RLU>
756.471

$$$$
>  <compound>
C[C@H](CCC(=O)O)[C@H]1CC[C@H]2[C@@H]3[C@@H](O)C[C@@H]4C[C@H](O)CC[C@]4(C)[C@H]3CC[C@]12C [Ursodeoxycholic Acid, ursodeoxycholic acid]

>  <unitSpec>
RLU

>  <RLU>
701.71

$$$$

---

Listed here: items and their measured RLU, fluorescence trace.
testedSystem: human TAS2R4 (Homo sapiens, UniProt Q9NYW5)
Construct: expressed in transfected cells; host or cells: HEK293T-Gα16gust44
Sequence (Q9NYW5 whole entry): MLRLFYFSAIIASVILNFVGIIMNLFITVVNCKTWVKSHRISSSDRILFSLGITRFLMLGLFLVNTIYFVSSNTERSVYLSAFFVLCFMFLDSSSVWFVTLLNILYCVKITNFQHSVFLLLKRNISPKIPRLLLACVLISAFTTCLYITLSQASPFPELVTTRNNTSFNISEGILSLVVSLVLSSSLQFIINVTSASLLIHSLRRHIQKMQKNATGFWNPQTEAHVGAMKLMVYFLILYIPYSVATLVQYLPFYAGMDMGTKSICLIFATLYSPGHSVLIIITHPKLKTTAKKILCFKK
measurementNotes: Calcium imaging assay (FLIPR), HEK293T-Gα16gust44 cells transfected with human TAS2R4; further: test concentration or dose not given here
Format: cell-based
experimentalContext: Time (s) 8

>  <smilesCode>
C[C@H](CCC(=O)O)[C@H]1CC[C@H]2[C@@H]3[C@@H](O)C[C@@H]4C[C@H](O)CC[C@]4(C)[C@H]3CC[C@]12C

>  <RLU, fluorescence trace [RLU]>
-15.0627

$$$$
>  <smilesCode>
C[C@H](CCC(=O)O)[C@H]1CC[C@H]2[C@@H]3CC[C@@H]4C[C@H](O)CC[C@]4(C)[C@H]3C[C@H](O)[C@]12C

>  <RLU, fluorescence trace [RLU]>
-1.905

$$$$
>  <smilesCode>
C[C@H](CCC(=O)NCCS(=O)(=O)O)[C@H]1CC[C@H]2[C@@H]3CC[C@@H]4C[C@H](O)CC[C@]4(C)[C@H]3CC[C@]12C

>  <RLU, fluorescence trace [RLU]>
-7.834

$$$$
>  <smilesCode>
C[C@H](CCC(=O)NCC(=O)O)[C@H]1CC[C@H]2[C@@H]3[C@H](O)C[C@@H]4C[C@H](O)CC[C@]4(C)[C@H]3C[C@H](O)[C@]12C

>  <RLU, fluorescence trace [RLU]>
-29.799

$$$$
>  <smilesCode>
C[C@H](CCC(=O)NCCS(=O)(=O)O)[C@H]1CC[C@H]2[C@@H]3[C@H](O)C[C@@H]4C[C@H](O)CC[C@]4(C)[C@H]3C[C@H](O)[C@]12C

>  <RLU, fluorescence trace [RLU]>
-20.122

$$$$
>  <smilesCode>
C[C@H](CCC(=O)O)[C@H]1CC[C@H]2[C@@H]3[C@H](O)C[C@@H]4C[C@H](O)CC[C@]4(C)[C@H]3C[C@H](O)[C@]12C

>  <RLU, fluorescence trace [RLU]>
21.2897

$$$$
